Sourced from ChEMBL document CHEMBL1146666

Parameter: pIC50. Scope: all listed entries.
biological target: Mitochondrial complex V; ATP synthase (Bos taurus, UniProt P00829+P05630+P05631+P05632); test: Inhibitory activity against bovine mitochondrial F1F0 ATP hydrolase; assay type: protein-complex assay
Sequence (P05632 whole entry): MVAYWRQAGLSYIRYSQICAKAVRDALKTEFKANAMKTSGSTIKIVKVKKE
Sequence (P00829 whole entry): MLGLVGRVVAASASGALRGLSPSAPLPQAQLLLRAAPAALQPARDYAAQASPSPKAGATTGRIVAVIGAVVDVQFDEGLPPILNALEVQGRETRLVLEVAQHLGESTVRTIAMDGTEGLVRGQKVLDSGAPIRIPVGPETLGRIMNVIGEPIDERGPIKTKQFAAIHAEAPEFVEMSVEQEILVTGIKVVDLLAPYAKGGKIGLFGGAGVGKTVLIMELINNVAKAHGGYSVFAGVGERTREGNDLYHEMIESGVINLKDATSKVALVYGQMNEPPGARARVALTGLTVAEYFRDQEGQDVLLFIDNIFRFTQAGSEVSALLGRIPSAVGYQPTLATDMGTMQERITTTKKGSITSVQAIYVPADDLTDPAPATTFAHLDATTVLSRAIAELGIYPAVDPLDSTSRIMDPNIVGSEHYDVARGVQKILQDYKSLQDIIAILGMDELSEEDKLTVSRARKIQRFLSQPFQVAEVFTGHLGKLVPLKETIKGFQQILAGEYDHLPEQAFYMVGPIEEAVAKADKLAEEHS
Sequence (P05631 whole entry): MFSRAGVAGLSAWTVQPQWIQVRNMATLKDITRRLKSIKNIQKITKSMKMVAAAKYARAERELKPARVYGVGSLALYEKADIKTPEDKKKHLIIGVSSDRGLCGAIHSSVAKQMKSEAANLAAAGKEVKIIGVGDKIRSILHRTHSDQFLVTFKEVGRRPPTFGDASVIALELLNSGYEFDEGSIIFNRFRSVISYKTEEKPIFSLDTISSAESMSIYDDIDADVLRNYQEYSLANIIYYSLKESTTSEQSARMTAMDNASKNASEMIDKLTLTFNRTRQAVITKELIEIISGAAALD
Sequence (P05630 whole entry): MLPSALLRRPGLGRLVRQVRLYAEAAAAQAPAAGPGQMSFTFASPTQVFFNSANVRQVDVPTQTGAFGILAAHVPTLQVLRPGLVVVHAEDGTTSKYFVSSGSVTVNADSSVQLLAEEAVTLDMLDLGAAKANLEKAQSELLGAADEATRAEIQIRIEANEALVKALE
As a rule, pIC50 stands for the negative log10 of the concentration, concentration in M.

N#CN/C(=N\C(Cn1ccnc1)c1ccc(Cl)cc1Cl)Nc1ccc(Cl)cc1 (centres undefined) | 5.06

Now look at this one.
So what does the record say about pIC50 for N#CN=C(Nc1ccccc1Cl)NC(Cn1ccnc1)c1ccc(Cl)cc1Cl (centres undefined) ?
5.65

---

biological target: Mitochondrial complex V; ATP synthase (Bos taurus, UniProt P00829+P05630+P05631+P05632); assay: Inhibitory activity against bovine mitochondrial F1F0 ATP hydrolase; format: protein-complex assay
Parameter: IC50. Scope: all listed entries.

Illustrative cases are given below, each with its answer.
N#CN/C(=N/c1cccc(Cl)c1)NC(Cn1ccnc1)c1ccc(Cl)cc1Cl (configuration not stated) | 9170 nM
CCC(=O)C(Nc1ccc(Cl)cc1)NC(Cn1ccnc1)c1ccc(Cl)cc1Cl (configuration not stated) | 2270 nM

So what does the record say about IC50 for Cc1ccc(C(Cn2ccnc2)OC(=S)Nc2ccc(Cl)cc2)c(C)c1 (configuration not stated) ?
31400 nM

So what does the record say about IC50 for N#CN/C(=N/c1ccc(Cl)cc1Cl)NC(Cn1ccnc1)c1ccc(Cl)cc1Cl (configuration not stated) ?
600 nM
